The values you see were collected from the supplement of paper PMC10724198.

system: Saccharomyces cerevisiae; assay: protein stability index of tFT-peptide fusion (C-terminal peptide) (PSI (0-1 scale)); higher = more stable (slower turnover); settings: genetic background: das1 deletion; temperature: 37 C
Endpoint label: protein stability index

Example results:
> print(dat)
    biosequence           endpoint.label  measured.value
1  SRRCGLFVFILF  protein stability index            0.49
2  NYCLYFKLSRLS  protein stability index           0.655

Input: Quick one: protein stability index for PWFSWLLYSFLF ?
Output: 0.651

Input: What about FLMLFVVLWLFL ?
Output: 0.522

Input: What about SCYDYVILLQLS ?
Output: 0.619

Input: What about GNIHHTRFLALL ?
Output: 0.835

Input: What about WQSFRDKLIKGN ?
Output: 0.754

Input: What about GTETWVFVLLKF ?
Output: 0.224

====

system: Saccharomyces cerevisiae; assay: protein stability index of tFT-peptide fusion (C-terminal peptide) (PSI (0-1 scale)); higher = more stable (slower turnover); conditions: genetic background: das1 deletion; temperature: 37 C
Classify by measured protein stability index: 1 if it is equal to or exceeds 0.6, -1 if it is smaller.

> print(dat)
    biosequence              assay.target  discrete.label
1  VLVVASLRFSFF  Saccharomyces cerevisiae              -1
2  YFCVELSVFGFF  Saccharomyces cerevisiae              -1
3  GSLHWVMVFAVP  Saccharomyces cerevisiae               1
4  HRHCVSSYQKVS  Saccharomyces cerevisiae               1
5  VARLGGRIGWEG  Saccharomyces cerevisiae               1

Input: Entry LFSFVCLVFFLW : is its protein stability index no less than 0.6?
Output: -1

Input: What about TLLMVSMTVRPL ?
Output: -1

Input: What about FGLLLVLASALG ?
Output: -1

Input: What about FECLLFVNLLVI ?
Output: -1

Input: What about PLSNLCRVLTFI ?
Output: 1

====

tested on: Saccharomyces cerevisiae; test: protein stability index of tFT-peptide fusion (C-terminal peptide) (PSI (0-1 scale)); higher = more stable (slower turnover); conditions: genetic background: wild type; temperature: 30 C
Classify by measured protein stability index: Yes if it is equal to or exceeds 0.7, No if it is smaller.

Input: Entry IIQSYINLLEEN [NKP2 C-terminal 12 aa] : is its protein stability index no less than 0.7?
Output: Yes

Input: What about DQAAKTFVIKKD [MDM38 C-terminal 12 aa] ?
Output: No

Input: What about VSDSEQSDTKGI [UAF30 C-terminal 12 aa] ?
Output: No

Input: What about YTSKSFSPASSE [YMR181C C-terminal 12 aa] ?
Output: No

Input: What about DLSLVFGNHEST [HEM15 C-terminal 12 aa] ?
Output: Yes

Input: What about VPNDNNEQRSSQ [SAN1 C-terminal 12 aa] ?
Output: No

Input: What about STDQLPELSFEV [TVP38 C-terminal 12 aa] ?
Output: Yes

====

tested on: Saccharomyces cerevisiae; assay: protein stability index of tFT-peptide fusion (C-terminal peptide) (PSI (0-1 scale)); higher = more stable (slower turnover); details: genetic background: wild type; temperature: 30 C
Reported protein stability index values are given for each entry in this list.
Lab note: write the figure by itself, no unit.

> print(dat)
    biosequence  measured.value
1  ERGGWGVGSEVG           0.719
2  PSPPRPPLPART           0.763
3  GGCGGVGGWGVA           0.712
4  KQRKIKKNIINH           0.707

Input: Quick one: protein stability index for SDKRMGSLQMSS ?
Output: 0.712

Input: What about PSRSCSAPLHPN ?
Output: 0.78

Input: What about CNRVSLSNVRLF ?
Output: 0.668

Input: What about SLYQPLSPTPPE ?
Output: 0.74

Input: What about LLRPYYHILVPL ?
Output: 0.695

Input: What about NWARLGVRMGAA ?
Output: 0.66

Input: What about RCRLGDFLLSFI ?
Output: 0.63
